# Ki per record follows
tested.on: Acetylcholinesterase (Electrophorus electricus, UniProt O42275)
Sequence (O42275 whole entry): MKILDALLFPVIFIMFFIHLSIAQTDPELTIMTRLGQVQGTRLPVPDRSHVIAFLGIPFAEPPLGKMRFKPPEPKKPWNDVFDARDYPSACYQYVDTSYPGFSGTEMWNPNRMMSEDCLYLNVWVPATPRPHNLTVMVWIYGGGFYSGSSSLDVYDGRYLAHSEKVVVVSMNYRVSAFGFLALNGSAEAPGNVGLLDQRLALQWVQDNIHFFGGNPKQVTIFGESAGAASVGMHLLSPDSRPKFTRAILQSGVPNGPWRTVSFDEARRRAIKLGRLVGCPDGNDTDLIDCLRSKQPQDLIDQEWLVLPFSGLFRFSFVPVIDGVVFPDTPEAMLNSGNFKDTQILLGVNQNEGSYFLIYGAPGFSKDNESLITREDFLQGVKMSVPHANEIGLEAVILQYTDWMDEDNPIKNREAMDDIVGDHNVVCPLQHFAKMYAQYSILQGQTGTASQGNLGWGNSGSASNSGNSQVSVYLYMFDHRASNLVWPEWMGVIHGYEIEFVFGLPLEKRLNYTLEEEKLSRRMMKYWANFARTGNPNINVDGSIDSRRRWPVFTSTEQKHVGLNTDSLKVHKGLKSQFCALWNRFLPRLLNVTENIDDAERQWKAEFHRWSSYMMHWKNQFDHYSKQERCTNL
assay.comment: Inhibition of Electrophorus electricus AChE using acetylthiocholine iodide as substrate preincubated for 20mins before the addition of substrate by Ellman's method
conditions: read-out: Ki

molecule	Ki
CC1(C)CC[C@]2(C(=O)OCc3ccc(Cl)cc3Cl)CC[C@]3(C)C(=CC[C@@H]4[C@@]5(C)C[C@@H](O)[C@H](O)C(C)(C)[C@@H]5CC[C@]43C)[C@@H]2C1	2.03 µM
CC1(C)CC[C@]2(C(=O)OCCCI)CC[C@]3(C)C(=CC[C@@H]4[C@@]5(C)C[C@@H](O)[C@H](O)C(C)(C)[C@@H]5CC[C@]43C)[C@@H]2C1	6.01 µM
C#CCNC(=O)[C@]12CCC(C)(C)C[C@H]1C1=CC[C@@H]3[C@@]4(C)C[C@@H](OC(C)=O)[C@H](OC(C)=O)C(C)(C)[C@@H]4CC[C@@]3(C)[C@]1(C)CC2	8.14 µM
CC1(C)CC[C@]2(C(=O)O)CC[C@]3(C)C(=CC[C@@H]4[C@@]5(C)C[C@H](O)[C@H](O)C(C)(C)[C@@H]5CC[C@]43C)[C@@H]2C1 [AUGUSTIC ACID]	> 30 µM
CCOC(=O)[C@]12CCC(C)(C)C[C@H]1C1=CC[C@@H]3[C@@]4(C)C[C@@H](O)[C@H](O)C(C)(C)[C@@H]4CC[C@@]3(C)[C@]1(C)CC2	3.49 µM
CC1(C)CC[C@]2(C(=O)OCCCCBr)CC[C@]3(C)C(=CC[C@@H]4[C@@]5(C)C[C@@H](O)[C@H](O)C(C)(C)[C@@H]5CC[C@]43C)[C@@H]2C1	> 10 µM
CC1(C)CC[C@]2(C(=O)OCCCBr)CC[C@]3(C)C(=CC[C@@H]4[C@@]5(C)C[C@@H](O)[C@H](O)C(C)(C)[C@@H]5CC[C@]43C)[C@@H]2C1	34.9 µM
COC(=O)[C@]12CCC(C)(C)C[C@H]1C1=CC[C@@H]3[C@@]4(C)C[C@@H](OS(N)(=O)=O)[C@H](O)C(C)(C)[C@@H]4CC[C@@]3(C)[C@]1(C)CC2	> 40 µM
CCNC(=O)[C@]12CCC(C)(C)C[C@H]1C1=CC[C@@H]3[C@@]4(C)C[C@@H](O)[C@H](O)C(C)(C)[C@@H]4CC[C@@]3(C)[C@]1(C)CC2	> 20 µM
C#CCCOC(=O)[C@]12CCC(C)(C)C[C@H]1C1=CC[C@@H]3[C@@]4(C)C[C@@H](O)[C@H](O)C(C)(C)[C@@H]4CC[C@@]3(C)[C@]1(C)CC2	6.76 µM
CC1(C)CC[C@]2(C(=O)OCCCO)CC[C@]3(C)C(=CC[C@@H]4[C@@]5(C)C[C@@H](O)[C@H](O)C(C)(C)[C@@H]5CC[C@]43C)[C@@H]2C1	20.1 µM
COC(=O)[C@]12CCC(C)(C)C[C@H]1C1=CC[C@@H]3[C@@]4(C)C[C@@H](O)[C@H](O)C(C)(C)[C@@H]4CC[C@@]3(C)[C@]1(C)CC2 [MASLINIC ACID METHYL ESTER]	> 50 µM
CC1(C)CC[C@]2(C(=O)OCc3ccc(Br)cc3)CC[C@]3(C)C(=CC[C@@H]4[C@@]5(C)C[C@@H](O)[C@H](O)C(C)(C)[C@@H]5CC[C@]43C)[C@@H]2C1	> 20 µM
CC1(C)CC[C@]2(C(=O)OCCO)CC[C@]3(C)C(=CC[C@@H]4[C@@]5(C)C[C@@H](O)[C@H](O)C(C)(C)[C@@H]5CC[C@]43C)[C@@H]2C1	> 100 µM
COc1ccc(COC(=O)[C@]23CCC(C)(C)C[C@H]2C2=CC[C@@H]4[C@@]5(C)C[C@@H](O)[C@H](O)C(C)(C)[C@@H]5CC[C@@]4(C)[C@]2(C)CC3)cc1	6.49 µM
CC1(C)CC[C@]2(C(=O)O)CC[C@]3(C)C(=CC[C@@H]4[C@@]5(C)C[C@@H](OC(=O)CCl)[C@H](OC(=O)CCl)C(C)(C)[C@@H]5CC[C@]43C)[C@@H]2C1	13.1 µM
CC1(C)CC[C@]2(C(=O)O)CC[C@]3(C)C(=CC[C@@H]4[C@@]5(C)C[C@@H](O)[C@H](O)C(C)(C)[C@@H]5CC[C@]43C)[C@@H]2C1 [MASLINIC ACID]	> 100 µM
CC(=O)O[C@H]1C[C@]2(C)[C@H]3CC=C4[C@@H]5CC(C)(C)CC[C@]5(C(=O)O)CC[C@@]4(C)[C@]3(C)CC[C@H]2C(C)(C)[C@H]1OC(C)=O	> 20 µM
C#CCNC(=O)[C@]12CCC(C)(C)C[C@H]1C1=CC[C@@H]3[C@@]4(C)C[C@@H](O)[C@H](O)C(C)(C)[C@@H]4CC[C@@]3(C)[C@]1(C)CC2	> 20 µM
CC1(C)CC[C@]2(C(=O)OCCCCl)CC[C@]3(C)C(=CC[C@@H]4[C@@]5(C)C[C@@H](O)[C@H](O)C(C)(C)[C@@H]5CC[C@]43C)[C@@H]2C1	8.76 µM
CC1(C)CC[C@]2(C(=O)O)CC[C@]3(C)C(=CC[C@@H]4[C@@]5(C)C[C@H](OC(=O)CCl)[C@H](OC(=O)CCl)C(C)(C)[C@@H]5CC[C@]43C)[C@@H]2C1	6.85 µM
CC(=O)O[C@@H]1C[C@]2(C)[C@H]3CC=C4[C@@H]5CC(C)(C)CC[C@]5(C(N)=O)CC[C@@]4(C)[C@]3(C)CC[C@H]2C(C)(C)[C@H]1OC(C)=O	> 20 µM
